Cited source: patent US20220372013A2

We begin with a simple list: items and their reported Daily Body Weight.
- Tested on: mice
- Assay: Biological Example 5: acute toxicity experiment of single oral administration in mice
- Format: in vivo
- Condition Set: Male mice; Day 7; single oral 1000 mg/Kg; Mean ± SD
Your answer is read as g, so omit the unit and give the number.

COCCN1C(=O)CCC(N2C(=O)c3ccc(F)c(N)c3C2=O)C1=O (centres unmarked) [Example 9]    27.9

Qu. Tell me its Daily Body Weight on mice: CNc1cccc2c1C(=O)N(C1CCC(=O)N(CCOC)C1=O)C2=O (centres unmarked) [Example 2]
Ans. 29.2

Qu. Tell me its Daily Body Weight on mice: CS(=O)(=O)CCN1C(=O)CCC(N2C(=O)c3cccc(N)c3C2=O)C1=O (centres unmarked) [Example 13]
Ans. 28.4

Qu. Tell me its Daily Body Weight on mice: COCCN1C(=O)CCC(N2C(=O)c3cccc(O)c3C2=O)C1=O (centres unmarked) [Example 23]
Ans. 29.0

Qu. Tell me its Daily Body Weight on mice: CSCCN1C(=O)CCC(N2C(=O)c3cccc(N)c3C2=O)C1=O (centres unmarked) [Example 11]
Ans. 29.8

Qu. Tell me its Daily Body Weight on mice: COCCN1C(=O)CCC(N2C(=O)c3cccc(NC(C)=O)c3C2=O)C1=O (centres unmarked) [Example 1]
Ans. 29.4

Qu. Tell me its Daily Body Weight on mice: COCCCN1C(=O)CCC(N2C(=O)c3ccc(N)cc3C2=O)C1=O (centres unmarked) [Example 18]
Ans. 29.0
